System: SKBR3 cells
Test: SKBR3 cell viability, sulforhodamine B assay
Format: cell-based, human
Details: Homo sapiens, SK-BR-3; 72 h treatment
Result Type: pIC50
The read-out pIC50 is expressed as -log10 of concentration in moles per litre.

Compound | pIC50
O=C(NCCCN1CCN(Cc2ccc3c(c2)OCO3)CC1)c1ccccn1 [SER195] | 3.82
N#CN=C(NCCCN1CCN(C(c2ccc(F)cc2)c2ccc(F)cc2)CC1)c1ccccn1 [SER79] | 4.27

Here is another compound to look at.
Documented pIC50 of O=C(NCCN1CCN(c2cccc(C(F)(F)F)c2)CC1)c1ccccn1 [SER167] : 3.82

---

Tested on: SKBR3 cells
Assay: SKBR3 cell viability, sulforhodamine B assay
Format: cell-based, human
Details: Homo sapiens, SK-BR-3; 72 h treatment
Description: MCF7 (ER^+, PR^+, HER2^−), SKBR3 (ER^−, PR^+, HER2^+) and MDA-MB231 (ER^−, PR^−, HER2^−) human BC cells and MCF10A non-cancer breast epithelial cells were available in our laboratory. […] Cells were fixed with 50% trichloroacetic acid for at least 2 h at 4 °C, washed with distilled and de-ionized water, air-dryed and stained 30 min with 0.4% sulforhodamine B in 1% acetic acid. […] Cell survival was assessed by optical density determination at 510 nm using a microplate reader. […]
Recorded IC50, one value per entry.
Write down the numeric answer in µM and omit the unit.

Molecule | Quantity Unit | IC50
O=C(c1ccco1)N1CCN(CC(O)CON2C(=O)C3C4C=CC(C4)C3C2=O)CC1 (centres unmarked) [SER31] | µM | 100
O=C1C2C3C=CC(C3)C2C(=O)N1OCCN1CCN(c2ccc(Cl)c(Cl)c2)CC1 (centres unmarked) [SER68] | µM | 260
O=C(NCCN1CCN(C(c2ccc(F)cc2)c2ccc(F)cc2)CC1)c1ccccn1 [SER177] | µM | 43.3
O=C(NCCCN1CCN(C(=O)c2ccco2)CC1)c1ccccn1 [SER196] | µM | 202

# input for lookup
Given the molecule O=C(NCCCN1CCN(C(c2ccc(F)cc2)c2ccc(F)cc2)CC1)c1ccccn1 [SER198] and test system SKBR3 cells, the measured IC50 is 67.7

---

Molecular target: UniProtKB P14842
Sequence (P14842 whole entry): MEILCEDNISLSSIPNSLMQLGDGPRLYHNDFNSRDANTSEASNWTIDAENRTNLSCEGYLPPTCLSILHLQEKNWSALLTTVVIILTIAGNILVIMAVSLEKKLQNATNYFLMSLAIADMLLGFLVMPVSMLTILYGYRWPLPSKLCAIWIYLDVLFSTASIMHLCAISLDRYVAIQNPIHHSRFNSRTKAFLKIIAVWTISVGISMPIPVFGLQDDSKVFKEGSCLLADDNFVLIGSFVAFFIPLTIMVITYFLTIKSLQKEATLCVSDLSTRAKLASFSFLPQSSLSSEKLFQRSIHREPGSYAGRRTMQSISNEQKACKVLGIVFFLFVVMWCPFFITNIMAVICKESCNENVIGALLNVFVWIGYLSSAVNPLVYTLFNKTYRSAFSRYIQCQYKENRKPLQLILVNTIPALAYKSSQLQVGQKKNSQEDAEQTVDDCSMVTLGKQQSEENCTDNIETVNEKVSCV
pKi: −log10 of the molar value.
Lab note: anything with pKi at or over 7 counts as condition met; the rest go in condition not met.

Here's what some known entries look like.
Compound | System Tested | Category
O=C(NCCN1CCN(c2cccc(C(F)(F)F)c2)CC1)c1ccccn1 | UniProtKB P14842 | condition met
O=C(c1ccco1)N1CCN(CC(O)CON2C(=O)C3C4C=CC(C4)C3C2=O)CC1 (stereo not drawn) | UniProtKB P14842 | condition not met
N#CN=C(NCCCN1CCN(C(c2ccc(F)cc2)c2ccc(F)cc2)CC1)c1ccccn1 | UniProtKB P14842 | condition not met

Inquiry: Quick check, pKi >= 7? O=C(NCCCN1CCN(C(=O)c2ccco2)CC1)c1ccccn1
Reply text: condition met
